target-under-test: Plasminogen (Homo sapiens, UniProt P00747)
Sequence (P00747 97-580 limits assumed): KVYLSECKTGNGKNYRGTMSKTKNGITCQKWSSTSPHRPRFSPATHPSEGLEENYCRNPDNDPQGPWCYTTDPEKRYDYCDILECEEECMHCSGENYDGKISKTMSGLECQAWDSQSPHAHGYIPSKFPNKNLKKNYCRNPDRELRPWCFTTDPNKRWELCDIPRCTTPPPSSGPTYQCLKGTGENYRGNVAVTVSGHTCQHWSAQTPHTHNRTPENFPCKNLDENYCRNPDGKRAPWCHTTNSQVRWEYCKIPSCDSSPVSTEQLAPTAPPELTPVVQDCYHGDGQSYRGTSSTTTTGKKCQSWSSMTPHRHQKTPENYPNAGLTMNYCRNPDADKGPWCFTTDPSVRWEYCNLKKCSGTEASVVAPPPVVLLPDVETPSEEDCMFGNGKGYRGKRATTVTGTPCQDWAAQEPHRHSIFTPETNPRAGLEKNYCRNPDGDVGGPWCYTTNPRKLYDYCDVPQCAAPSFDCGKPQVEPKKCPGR
Sequence (P00747 581-810 limits assumed): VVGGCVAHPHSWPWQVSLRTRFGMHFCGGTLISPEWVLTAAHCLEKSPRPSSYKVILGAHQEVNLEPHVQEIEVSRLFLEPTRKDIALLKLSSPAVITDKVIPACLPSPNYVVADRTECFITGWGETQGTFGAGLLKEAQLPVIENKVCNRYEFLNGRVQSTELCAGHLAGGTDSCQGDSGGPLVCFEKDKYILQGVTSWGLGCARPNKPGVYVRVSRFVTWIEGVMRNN
assay-info: Inhibition of plasmin (unknown origin)

{"compound": "CC(C)COC(=O)c1ccc(NC(=O)[C@H](CCCNC(=N)N)NC(=O)C2CCC(CN)CC2)cc1 (some centres not stated)", "relation-symbol": "=", "IC50, µM": 370}
{"compound": "CC(=O)c1ccc(NC(=O)C(CCCNC(=N)NS(=O)(=O)c2c(C)cc(C)cc2C)NC(=O)C2CCC(CN)CC2)cc1 (configuration not stated)", "relation-symbol": "=", "IC50, µM": 42}
{"compound": "CCOc1ccc(C[C@@H](NC(=O)c2ccccc2)C(=O)N[C@@H](Cc2ccccc2)C(=O)NCc2ccc(CN)cc2)cc1", "relation-symbol": "=", "IC50, µM": 0.022}
{"compound": "COC(=O)c1ccc(NC(=O)[C@H](CCCCN)NC(=O)C2CCC(CN)CC2)cc1 (some centres not stated)", "relation-symbol": ">", "IC50, µM": 500}
{"compound": "COCc1nn(Cc2ccc(Cn3cc(F)ccc3=O)cc2)cc1C(=O)NCc1nccc(OC)c1F", "relation-symbol": ">", "IC50, µM": 40}
{"compound": "NCC1CCC(C(=O)N[C@@H](Cc2ccccc2)C(=O)Nc2ccc(CC(=O)O)cc2)CC1 (some centres not stated)", "relation-symbol": "=", "IC50, µM": 620}
{"compound": "CC(=O)c1ccc(NC(=O)[C@H](Cc2ccccc2)NC(=O)C2CCC(CN)CC2)cc1 (some centres not stated)", "relation-symbol": "=", "IC50, µM": 21}

----------
Parameter IC50: see the listing below.
target-under-test: Plasma kallikrein (Homo sapiens)
Sequence (P03952 20-390 limits assumed): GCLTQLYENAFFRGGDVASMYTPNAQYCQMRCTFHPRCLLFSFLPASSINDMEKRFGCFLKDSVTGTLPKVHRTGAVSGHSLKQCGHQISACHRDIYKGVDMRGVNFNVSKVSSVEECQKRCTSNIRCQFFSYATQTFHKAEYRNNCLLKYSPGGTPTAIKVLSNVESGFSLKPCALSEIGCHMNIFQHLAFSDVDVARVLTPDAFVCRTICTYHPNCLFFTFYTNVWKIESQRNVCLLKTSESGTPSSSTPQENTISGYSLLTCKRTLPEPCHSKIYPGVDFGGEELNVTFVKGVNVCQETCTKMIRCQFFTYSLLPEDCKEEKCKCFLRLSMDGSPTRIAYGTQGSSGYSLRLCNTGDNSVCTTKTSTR
Sequence (P03952 391-638 limits assumed): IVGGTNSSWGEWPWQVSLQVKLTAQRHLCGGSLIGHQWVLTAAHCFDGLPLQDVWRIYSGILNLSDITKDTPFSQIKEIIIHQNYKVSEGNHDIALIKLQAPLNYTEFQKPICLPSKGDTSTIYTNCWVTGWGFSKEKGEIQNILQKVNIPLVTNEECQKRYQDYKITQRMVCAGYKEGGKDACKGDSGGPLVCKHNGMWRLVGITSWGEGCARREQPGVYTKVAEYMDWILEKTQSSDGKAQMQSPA
assay-info: Inhibition of human plasma kallikrein using H-D-Pro-Phe-Arg-p-nitroaniline as substrate assessed as inhibition constant

{"compound": "CO[C@@H]1C[C@H](C(=O)Nc2cc(C(N)(CCC3CC3)c3cccc(C#N)c3)ccc2F)N(C(=O)Nc2ccc(Cl)cn2)C1 (some centres undefined)", "IC50": "< 0.05 µM"}
{"compound": "NCc1cccc(-n2nc(C(F)(F)F)cc2C(=O)Nc2cccc(C(O)c3ccccc3)c2)c1 (centres undefined)", "IC50": "> 50 µM"}
{"compound": "NCc1cccc(-n2nc(C(F)(F)F)cc2C(=O)Nc2cccc(C(OCC3CC3)c3ccccc3)c2)c1 (centres undefined)", "IC50": "0.1 µM"}
{"compound": "CO[C@@H]1C[C@H](C(=O)Nc2cc(C(N)(CCC3CC3)c3ccccn3)ccc2F)N(C(=O)Nc2ccc(Cl)cc2)C1 (some centres undefined)", "IC50": "< 0.05 µM"}

Reference source for all entries: ChEMBL document CHEMBL5233226
